Tested on: EP3
Test: EP3 activity in isolated smooth muscle preparations
Settings: read-out: EC50 (nM) EP3
Form field: EC50 (one value per entry).

Known results for molecules:
Using the record for COP(=O)(CCc1ccccc1)OC[C@@H]1[C@@H](C/C=C\CCCC(=O)O)[C@@H](O)C[C@H]1O (stereo partly drawn) [drawing 10] , report its EC50. 575 nM

Using the record for COC(=O)CCC/C=C\C[C@@H]1[C@@H](CNP(=O)(CCc2ccccc2)OC)[C@H](O)C[C@@H]1O (stereo partly drawn) [drawing 14] , report its EC50. > 10000 nM

Proceeding to the next molecule to report its EC50.
Using the record for COC(=O)CCC/C=C\C[C@@H]1[C@@H](COP(=O)(O)CCc2ccccc2)[C@H](O)C[C@@H]1O , report its EC50. > 10000 nM
